# system.name: T1, recombinant His-tagged human IFNAR-1-ECD protein (human, UniProt P17181 28-436)
# T1 construct: extracellular domain; the Biacore text says His-tagged human IFNAR-1-ECD; also called His-tagged IFNAR-1; hIFNAR-1 protein; not shown: His tag
# T1 sequence (looked up): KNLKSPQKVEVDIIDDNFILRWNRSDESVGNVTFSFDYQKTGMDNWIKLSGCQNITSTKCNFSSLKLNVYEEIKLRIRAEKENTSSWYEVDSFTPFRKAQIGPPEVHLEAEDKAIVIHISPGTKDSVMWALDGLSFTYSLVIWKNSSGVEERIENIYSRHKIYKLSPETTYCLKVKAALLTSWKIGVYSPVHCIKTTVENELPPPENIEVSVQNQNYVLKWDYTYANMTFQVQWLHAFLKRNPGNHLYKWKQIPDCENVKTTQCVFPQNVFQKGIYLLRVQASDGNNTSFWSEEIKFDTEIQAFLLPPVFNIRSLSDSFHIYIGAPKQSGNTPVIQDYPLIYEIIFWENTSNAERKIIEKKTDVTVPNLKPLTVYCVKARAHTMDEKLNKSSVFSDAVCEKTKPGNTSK
# measurement.notes: ELISA, coated His-tagged IFNAR-1
observable: log10(EC50) (log10 of the value in nM)
Plainly stated, the numbers are log10 of EC50 given in nM.

Below, each entry is followed by its recorded log10(EC50) result.
• 107E12 (antibody, V domains shown, Hybridoma-derived monoclonal antibody) VH: EVQLQQSGAEFVKPGASVKLSCTASGFNIKDYYIHWVTQKTEQGLEWIGRIDPEDGETKYAPKFQDKATITADSSSNTAYLQLSSLTSVDTAVYFCSREGSFTGWFPYWGQGTLVSVSA VL: DIVMTQSQKFMSTSVGDRVSVTCKARQSVGTYVAWYQQKPGQSPKALIYSTSYRYNGVPDRFTGSGSGTDFTLTISNVQSEDLADYFCQQYHSYPYTFGGGTKLEIK = -1.12
• 8G11 (antibody, V domains shown, Hybridoma-derived monoclonal antibody; also called mouse antibody 8G11) VH: EVQLQQSGAELVKPGASVKLSCTGFGFNIKDYYMHWVKQRAEQGLEWIGRIDPEDGETKYAPKFQGKATITADTSSNTAYLQVSSLTSEDTAVYYCARGGNFYVMDYWGQGTSVTVSS VL: DIVMTQSQKFMSTSVGDRVSVTCKASQNVGTNVVWYQQKPGQSPKVLIYSASYRVSGVPDRFTGSGSGTDFTLIISNVQSEDLAEYFCQQKNNYPYTFGGGTKLEIK = -1.16
• 104A3 (antibody, V domains shown, Hybridoma-derived monoclonal antibody) VH: EVQLQQSGAELVKPGASVKVSCTGSGFNIKDYYIHWVKQRTEQGLEWIGRIDPEDGETKYAPKFQGKATITSDTSSNTAYLQLSSLTSGDTAVYFCARYDGYYCFDYWGQGTTLTVSS VL: DIVMTQSQKFMSTSVGDRVSVTCKASQNVGTNVAWYQQKPGQSPKPLIYSTSYRYSGVPDRFTGSGSGTDFTLTISNVQSADLAAYFCQQYNNYPYTFGGGTRLEIK = -1.25
• 34H8 (antibody, V domains shown, Hybridoma-derived monoclonal antibody) VH: EVQLLQSGAELVKPGASVRLSCTASGFNIKDYYLHWVKQRTEQGLEWIGRIDPEDGETKYAPKFQGKATITTDTSSNTAYLQLSSLTSEDTAVYYCTRGGNYDVMDYWGQGTSVTVSS VL: DIVMTQSQKFMSTSVGDRVSVTCKASQNVGTYVVWYQQKPGQSPKALIYSASYRYSGVPDRFTGSGSGTDFTLTIGNVQSEDLAEYFCQQKNTYPFTFGGGTKLEIE = -1.19
• 402G3 (antibody, V domains shown, Hybridoma-derived monoclonal antibody) VH: QVQLQQSGAELVKPGSSVKISCKASGFTFTSHFIHWIKQQPGNGLKWIGWIYPGDDDTEYNHKFNGKATLTADKSSSTAYMHLSSLTSEDSAVYFCARRVEYYNGGFAYWGQGTLVTVSS VL: DVQMTQSPSYLAAPPGESVSISCKASKNIRNNLGWYQERPGKTPNLLIHSGSTLQSGAPSRFSGGGSGTDFTLTIRSLESEDSAVYYCQQYDQYPLTFGSGTKLEIK = -0.86

Switching to the query record.
INPUT: Fill blank: measured log10(EC50) of the binder 124D12 (antibody, V domains shown, Hybridoma-derived monoclonal antibody) VH: EVQLQQSGAELVKPGASVKVSCTGSGFNIKDYYIHWVKQRTEQGLEWIGRIDPEDGETKYAPKFQGRATITSDTSSNTAYLQLSSLTSGDTAVYYCARYDGYYCFDYWGQGTTLTVSS VL: DIVMTQSQKFMSTSVGDRVSVTCKASQNVGTNVAWYQQKPGQSPKPLIYSTSYRYSGVPDRFTGSGSGTDFTLTISNVQSADLAAYFCQQYNNYPYTFGGGTRLEIK is ____.
OUTPUT: -1.21
